biological target: CpG methyltransferase (M.SssI MTase) (Spiroplasma monobiae); assay: coupled GlaI / RNase HII cleavage, Cy5 release from AuNP, single-molecule TIRF counting; conditions: 600 nM hairpin DNA HS1; 320 μM SAM; 100 U/mL M.SssI; NEBuffer 2; 37 °C, 2 h; coupled assay; free nucleoside added, covalent mechanism only cited
Sequence (P15840 whole entry): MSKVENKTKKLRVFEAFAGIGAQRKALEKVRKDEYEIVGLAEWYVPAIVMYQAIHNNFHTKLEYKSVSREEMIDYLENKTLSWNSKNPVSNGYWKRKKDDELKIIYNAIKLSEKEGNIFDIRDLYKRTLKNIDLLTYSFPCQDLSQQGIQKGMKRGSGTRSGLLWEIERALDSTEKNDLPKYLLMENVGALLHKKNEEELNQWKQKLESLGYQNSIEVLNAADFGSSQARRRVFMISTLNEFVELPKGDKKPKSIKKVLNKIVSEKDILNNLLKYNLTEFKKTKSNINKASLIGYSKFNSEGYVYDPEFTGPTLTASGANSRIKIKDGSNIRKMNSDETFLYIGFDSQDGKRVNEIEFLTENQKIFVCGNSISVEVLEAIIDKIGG
Property measured: IC50 (nM)
Answers are plain numbers, in nM.

In: Fill in IC50 for record `Nc1ncn([C@H]2C[C@H](O)[C@@H](CO)O2)c(=O)n1`
Out: 640
